These measurements were taken from patent EP4653440A1.

// reported IC50 per item
target: ROCK1 (Homo sapiens); test: ROCK1 kinase enzymatic activity (HTRF, STK2 substrate); assay type: biochemical; settings: ROCK1 kinase reaction 20 minutes at room temperature

N#CCC1(n2cc(-c3ncnc4[nH]ccc34)c(N)n2)CS(=O)(=O)C1 [Example 2]; < 2 nM
CC1CC([C@H](CC#N)n2cc(-c3ncnc4[nH]ccc34)c(N)n2)C1 (some centres unmarked) [Example 17]; < 5 nM
N#CCC1(n2cc(-c3ncnc4[nH]ccc34)c(N)n2)CC(C#N)C1 (centres unmarked) [Example 9]; < 10 nM
N#CCC(C1CC2CC2C1)n1cc(-c2ncnc3[nH]ccc23)c(N)n1 (centres unmarked) [Example 24]; < 5 nM
N#CC1CCCC1n1cc(-c2ncnc3[nH]ccc23)c(N)n1 (centres unmarked) [Example 7]; < 50 nM

Inquiry: Quick check: IC50 of N#CC[C@H](C1CCC1)n1cc(-c2ncnc3[nH]ccc23)c(N)n1 [Example 27] ?
Reply text: < 5 nM

Inquiry: I am curious: what IC50 value has been reported for N#CCC(C1CCC1)n1cc(-c2ncnc3[nH]ccc23)c(N)n1 (centres unmarked) [Example 13] ?
Reply text: < 5 nM

Inquiry: Quick check: IC50 of N#CCC1(n2cc(-c3ncnc4[nH]ccc34)c(N)n2)CC(F)(F)C1 [Example 6] ?
Reply text: < 5 nM

---

molecular target: ROCK1 (Homo sapiens, UniProt Q13464); assay: ROCK1 kinase enzymatic activity (HTRF, STK2 substrate); type: biochemical; details: ROCK1 kinase reaction 20 minutes at room temperature
Sequence (Q13464 whole entry): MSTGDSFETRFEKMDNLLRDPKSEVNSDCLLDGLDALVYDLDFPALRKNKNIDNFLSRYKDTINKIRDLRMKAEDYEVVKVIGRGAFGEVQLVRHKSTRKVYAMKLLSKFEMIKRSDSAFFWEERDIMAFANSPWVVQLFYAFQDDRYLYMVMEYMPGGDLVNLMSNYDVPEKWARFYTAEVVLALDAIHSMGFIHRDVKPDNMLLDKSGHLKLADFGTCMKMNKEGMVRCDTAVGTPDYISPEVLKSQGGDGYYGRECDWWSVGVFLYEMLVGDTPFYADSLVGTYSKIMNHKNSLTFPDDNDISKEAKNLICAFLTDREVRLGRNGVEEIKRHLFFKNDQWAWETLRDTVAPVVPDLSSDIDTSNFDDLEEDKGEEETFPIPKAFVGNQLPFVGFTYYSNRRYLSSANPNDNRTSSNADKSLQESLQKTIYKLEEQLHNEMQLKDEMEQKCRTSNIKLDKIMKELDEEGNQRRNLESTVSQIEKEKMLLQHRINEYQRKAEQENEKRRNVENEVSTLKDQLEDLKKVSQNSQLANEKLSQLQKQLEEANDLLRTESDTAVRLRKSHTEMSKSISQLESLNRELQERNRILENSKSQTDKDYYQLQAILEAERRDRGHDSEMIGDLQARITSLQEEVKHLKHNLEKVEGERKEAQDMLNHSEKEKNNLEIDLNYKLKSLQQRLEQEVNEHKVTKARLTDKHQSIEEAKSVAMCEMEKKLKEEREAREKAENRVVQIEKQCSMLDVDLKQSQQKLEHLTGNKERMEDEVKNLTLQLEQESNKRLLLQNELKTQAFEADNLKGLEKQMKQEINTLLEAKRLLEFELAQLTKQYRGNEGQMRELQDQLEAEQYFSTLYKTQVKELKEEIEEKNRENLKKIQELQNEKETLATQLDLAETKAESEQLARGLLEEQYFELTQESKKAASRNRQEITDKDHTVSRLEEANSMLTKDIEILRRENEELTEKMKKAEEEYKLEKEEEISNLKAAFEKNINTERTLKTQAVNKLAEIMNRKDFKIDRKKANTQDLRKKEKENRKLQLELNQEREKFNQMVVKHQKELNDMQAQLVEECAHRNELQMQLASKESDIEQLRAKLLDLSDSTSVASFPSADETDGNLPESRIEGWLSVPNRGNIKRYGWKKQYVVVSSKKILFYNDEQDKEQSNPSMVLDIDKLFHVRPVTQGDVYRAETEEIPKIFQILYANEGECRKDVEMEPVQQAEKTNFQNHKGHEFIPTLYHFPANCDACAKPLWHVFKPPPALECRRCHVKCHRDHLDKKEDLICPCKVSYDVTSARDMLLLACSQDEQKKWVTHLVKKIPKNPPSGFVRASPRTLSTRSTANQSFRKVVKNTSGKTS
Recorded IC50 values for a group of compounds are listed next.

The examples below pair each entry with its known result.
N#CCC(C1CC2(CC2)C1)n1cc(-c2ncnc3[nH]ccc23)c(N)n1 (stereo not drawn); < 5 nM
N#CC[C@@H](C1CCC1)n1cc(-c2ncnc3[nH]ccc23)c(N)n1; < 5 nM

Consider the record given below.
Inquiry: Quick one: IC50 for CC1CC([C@@H](CC#N)n2cc(-c3ncnc4[nH]ccc34)c(N)n2)C1 (stereo partly drawn) ?
Reply text: < 5 nM
